# Target Of Assay: panel of 442 kinases (Homo sapiens, UniProt O75582)
# Construct: purchased Ambit Biosciences (scanMAXX KINOMEscan)
# Sequence (O75582 whole entry): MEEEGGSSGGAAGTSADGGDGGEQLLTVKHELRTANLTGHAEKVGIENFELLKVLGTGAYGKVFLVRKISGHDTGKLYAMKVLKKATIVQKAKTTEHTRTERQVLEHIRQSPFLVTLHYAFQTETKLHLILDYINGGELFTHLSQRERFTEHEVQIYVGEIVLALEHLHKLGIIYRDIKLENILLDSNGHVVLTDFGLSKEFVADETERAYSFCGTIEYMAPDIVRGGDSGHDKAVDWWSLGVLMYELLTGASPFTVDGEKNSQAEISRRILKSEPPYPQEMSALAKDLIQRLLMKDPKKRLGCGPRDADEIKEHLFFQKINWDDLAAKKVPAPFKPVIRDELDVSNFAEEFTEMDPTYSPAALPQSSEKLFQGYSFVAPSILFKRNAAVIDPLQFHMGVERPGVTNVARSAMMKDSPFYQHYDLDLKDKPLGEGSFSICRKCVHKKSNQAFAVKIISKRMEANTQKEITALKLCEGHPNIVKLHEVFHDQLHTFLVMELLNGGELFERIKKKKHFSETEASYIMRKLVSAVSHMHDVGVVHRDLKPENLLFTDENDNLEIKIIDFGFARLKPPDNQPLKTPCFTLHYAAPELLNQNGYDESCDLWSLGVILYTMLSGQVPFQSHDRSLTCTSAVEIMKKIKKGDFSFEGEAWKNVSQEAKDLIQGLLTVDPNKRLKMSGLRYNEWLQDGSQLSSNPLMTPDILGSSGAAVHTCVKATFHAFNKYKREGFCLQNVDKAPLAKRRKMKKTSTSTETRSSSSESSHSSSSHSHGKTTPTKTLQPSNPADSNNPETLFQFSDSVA
# Assay Info: biochemical
# Assay type: binding
# Condition Info: kinase RPS6KA5(Kin.Dom.1-N-terminal); 1 µM; read-out: RPS6KA5(Kin.Dom.1-N-terminal) (% of control at 1 µM)
Entries annotated with measured remaining activity at 1 µM
# unit: % | format: bare number

INSERT INTO measurements (molecule, observed_measurement) VALUES
  ('FC(F)c1nc2ccccc2n1-c1nc(N2CCOCC2)nc(N2CCOCC2)n1 [ZSTK474]', 81),
  ('COc1ncc(-c2ccc3nccc(-c4ccnnc4)c3c2)cc1NS(=O)(=O)c1ccc(F)cc1F [Omipalisib]', 100),
  ('Cn1c(=O)n(-c2ccc(C(C)(C)C#N)cc2)c2c3cc(-c4cnc5ccccc5c4)ccc3ncc21 [Dactolisib]', 64);

Ask: Tell me the measured remaining activity at 1 µM of Nc1cc(C(F)(F)F)c(-c2cc(N3CCOCC3)nc(N3CCOCC3)n2)cn1 [Buparlisib] , please.
Reply: 100

----------
# Target Of Assay: panel of 442 kinases (Homo sapiens, UniProt O15146)
# Construct: purchased Ambit Biosciences (scanMAXX KINOMEscan)
# Sequence (O15146 24-869): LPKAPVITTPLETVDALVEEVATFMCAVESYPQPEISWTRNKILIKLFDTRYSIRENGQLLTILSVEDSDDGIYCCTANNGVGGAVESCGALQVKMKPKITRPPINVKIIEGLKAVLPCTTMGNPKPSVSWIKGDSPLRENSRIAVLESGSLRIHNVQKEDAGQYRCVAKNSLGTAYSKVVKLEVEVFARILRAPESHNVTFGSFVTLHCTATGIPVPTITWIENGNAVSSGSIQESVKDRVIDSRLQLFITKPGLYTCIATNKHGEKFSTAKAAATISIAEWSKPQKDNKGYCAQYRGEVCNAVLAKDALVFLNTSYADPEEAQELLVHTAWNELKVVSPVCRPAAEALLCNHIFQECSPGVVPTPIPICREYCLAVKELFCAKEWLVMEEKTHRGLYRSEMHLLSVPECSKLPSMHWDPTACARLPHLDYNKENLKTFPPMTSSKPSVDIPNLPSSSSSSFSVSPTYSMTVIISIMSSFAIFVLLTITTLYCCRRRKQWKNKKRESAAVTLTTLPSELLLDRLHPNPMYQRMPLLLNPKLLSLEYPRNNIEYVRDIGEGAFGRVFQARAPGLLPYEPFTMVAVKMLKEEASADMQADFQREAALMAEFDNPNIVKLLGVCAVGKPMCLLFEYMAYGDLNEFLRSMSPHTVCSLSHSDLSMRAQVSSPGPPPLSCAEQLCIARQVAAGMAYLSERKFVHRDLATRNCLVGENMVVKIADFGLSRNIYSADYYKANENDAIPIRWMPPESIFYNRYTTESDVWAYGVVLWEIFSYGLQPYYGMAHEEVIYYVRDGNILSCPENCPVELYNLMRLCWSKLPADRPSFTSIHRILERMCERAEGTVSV
# Assay Info: biochemical
# Type: binding
# Condition Info: kinase MUSK; 1 µM; read-out: % of control at 1 µM
Entries annotated with measured remaining activity at 1 µM
# unit: % | format: bare number

Check out these entries, answers already filled in.
INSERT INTO assay_data (compound, observed_measurement) VALUES
  ('FC(F)c1nc2ccccc2n1-c1nc(N2CCOCC2)nc(N2CCOCC2)n1 [ZSTK474]', 100),
  ('COc1ncc(-c2ccc3nccc(-c4ccnnc4)c3c2)cc1NS(=O)(=O)c1ccc(F)cc1F [Omipalisib]', 100),
  ('Nc1cc(C(F)(F)F)c(-c2cc(N3CCOCC3)nc(N3CCOCC3)n2)cn1 [Buparlisib]', 86);

Continue with the compound presented below.
Ask: Tell me the measured remaining activity at 1 µM of Cn1c(=O)n(-c2ccc(C(C)(C)C#N)cc2)c2c3cc(-c4cnc5ccccc5c4)ccc3ncc21 [Dactolisib] , please.
Reply: 100

----------
# Target Of Assay: panel of 442 kinases (Homo sapiens, UniProt Q59H18)
# Construct: purchased Ambit Biosciences (scanMAXX KINOMEscan)
# Sequence (Q59H18 whole entry): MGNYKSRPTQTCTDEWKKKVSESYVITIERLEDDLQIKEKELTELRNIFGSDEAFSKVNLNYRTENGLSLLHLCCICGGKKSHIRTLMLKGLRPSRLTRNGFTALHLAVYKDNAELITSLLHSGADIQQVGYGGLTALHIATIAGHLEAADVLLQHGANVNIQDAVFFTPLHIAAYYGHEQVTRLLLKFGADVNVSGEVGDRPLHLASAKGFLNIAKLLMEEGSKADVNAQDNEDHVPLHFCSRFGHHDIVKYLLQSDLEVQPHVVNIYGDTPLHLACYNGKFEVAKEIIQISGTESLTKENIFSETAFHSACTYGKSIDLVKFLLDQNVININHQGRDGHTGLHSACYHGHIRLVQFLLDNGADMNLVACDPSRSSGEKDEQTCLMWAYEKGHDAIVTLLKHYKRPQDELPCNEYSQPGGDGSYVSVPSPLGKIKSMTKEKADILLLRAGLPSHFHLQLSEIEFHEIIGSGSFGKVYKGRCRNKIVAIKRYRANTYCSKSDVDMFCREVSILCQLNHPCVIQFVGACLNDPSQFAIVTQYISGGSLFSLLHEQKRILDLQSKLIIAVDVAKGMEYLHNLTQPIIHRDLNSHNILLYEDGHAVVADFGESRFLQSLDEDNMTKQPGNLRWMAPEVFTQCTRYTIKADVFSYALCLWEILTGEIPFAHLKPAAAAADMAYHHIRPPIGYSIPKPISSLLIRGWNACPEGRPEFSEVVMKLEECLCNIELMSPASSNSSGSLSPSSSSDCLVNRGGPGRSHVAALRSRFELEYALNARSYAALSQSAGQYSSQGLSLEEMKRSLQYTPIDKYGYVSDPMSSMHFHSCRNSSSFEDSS
# Assay Info: biochemical
# Assay type: binding
# Condition Info: kinase TNNI3K; 1 µM; read-out: TNNI3K (% of control at 1 µM)
Entries annotated with measured remaining activity at 1 µM
# unit: % | format: bare number

Ask: Tell me the measured remaining activity at 1 µM of COc1ncc(-c2ccc3nccc(-c4ccnnc4)c3c2)cc1NS(=O)(=O)c1ccc(F)cc1F , please.
Reply: 100

Ask: Tell me the measured remaining activity at 1 µM of FC(F)c1nc2ccccc2n1-c1nc(N2CCOCC2)nc(N2CCOCC2)n1 , please.
Reply: 95

Ask: Tell me the measured remaining activity at 1 µM of Cn1c(=O)n(-c2ccc(C(C)(C)C#N)cc2)c2c3cc(-c4cnc5ccccc5c4)ccc3ncc21 , please.
Reply: 76

Ask: Tell me the measured remaining activity at 1 µM of Nc1cc(C(F)(F)F)c(-c2cc(N3CCOCC3)nc(N3CCOCC3)n2)cn1 , please.
Reply: 100
